B1: tRNA (parent)
chain: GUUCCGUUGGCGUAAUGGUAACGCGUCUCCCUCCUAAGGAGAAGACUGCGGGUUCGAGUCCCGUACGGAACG

Variants of: B1
method.notes: yeast fitness, log relative to wild type (ln ratio); higher = fitter; tRNA-Arg(CCU), competitive growth, 37 C, 1 M NaCl
result.type: yeast fitness (ln)
# print the numeric value only

# variant.spec, yeast fitness (ln)
rows = [
    ("U2C C27U A43C C46U C66U A69G A70G", -0.303),
    ("G1A U2C G6U C46U A69G A70U C71U", -0.249),
    ("U2G G6U C27U A43C C46U A70G", -0.208),
    ("U2G A70U C71U", -0.017),
    ("G1A G6U C27U A43C C46U A70G", -0.385),
]

// yeast fitness (ln) lookup, key: G1A G6U A43C C66U A69G A70U
-0.452

Continue with G1A C27U A43C C46U A69G A70G
-0.183

Continue with U2C G6A A43C C46U C66A C71U
-0.127

Continue with U2C G6A C46U A69G A70G C71U
-0.145

Continue with U2C G6A A43C A69G A70G
-0.0768

Continue with C66A A70U
-0.00405
